src = PubChem BioAssay AID623870

# measuredOn: Transforming acidic coiled-coil-containing protein 3 (Homo sapiens)
# assayExplanation: disruptors of ARNT/TACC3 protein interaction, primary screen, biochemical, AlphaScreen, single concentration (AID 623870);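 also: 0% = complete ARNT plus TACC3 wells and 100% = ARNT alone without TACC3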
# conditionDescription: AlphaScreen His-ARNT PAS-B/GST-TACC3 binding, luminescence; at 9.99 µM; active compounds read high
Screen size: about 390,000 compounds; about 2,600 (0.67%) were called active. The sample as a whole holds a higher share of actives than the screen did.
outcomeMeasure: inhibition (%)
Give your result in % as a bare value.

Solved entries (count: 2):
- OC[C@@H]1[C@H]2c3ccccc3NC[C@H]2N1Cc1cccnc1: 5.28
- Cc1ccc2c(c1)=C/C(=C\c1c(O)[nH]c(=O)[nH]c1=O)C(=O)N=2: 13.7

Give a short answer stating reported inhibition for "COc1ccccc1N=Nc1c(O)[nH]c(=S)[nH]c1=O" .
-1.81

Identify inhibition associated with the molecule "O=C(Cc1ccccc1)N1CCCCN2[C@H](CO)[C@H](c3ccc(C#Cc4ccccc4)cc3)[C@H]2C1"
3.71

Tell me its inhibition given "COc1ccc(-c2ccc([C@H]3[C@H](CO)N4CCCCN(C(=O)Cc5ccncc5)C[C@@H]34)cc2)cc1" as the entry.
-8.67

Retrieve inhibition measured for "O=C(Cc1ccccn1)N1CCCCN2[C@H](C1)[C@H](c1ccc(-c3ccccc3F)cc1)[C@@H]2CO" and print it.
10.9
